# Target Or Test System: SCRIB PDZ2 H928A (Homo sapiens, UniProt Q14160, H928A)
# Sequence (Q14160 860-950 H928A limits assumed): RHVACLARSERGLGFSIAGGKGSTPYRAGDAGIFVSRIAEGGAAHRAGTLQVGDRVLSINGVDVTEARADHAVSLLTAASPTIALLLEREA
# Measurement Description: biochemical
# Assay type: binding
Ends that are not written are not given here.
Property Measured: Kd (µM)
Provide only the numeric value, understood in µM.

## Input Identify Kd associated with the sequence KMARTIESEV [Vietnam (ESEV)]
## Output 3.6
